system under test: Furin (108-574-Tev-Flag-His) enzyme (Homo sapiens, UniProt P09958)
Construct: Furin (108-574-Tev-Flag-His) enzyme was expressed and purified from CHO cells; TEV cleavage site (C); FLAG (C); His (C); made in house; host or cells: CHO cells
test protocol: Furin enzyme assay
Type: biochemical
Protocol: Reactions were performed in black 384-well polystyrene low volume plates (Greiner). Furin (108-574-Tev-Flag-His) enzyme was expressed and purified from CHO cells. […] Enzyme inhibition is then quantified using an Envision instrument (PerkinElmer). Data were analyzed using AbaseXE 7.3, utilizing a four-parameter curve fit equation. […] Raw counts obtained from the respective plate reader (Perkin Elmer) were captured for data analysis. […] The results were recorded as pXC50 values (−C in the above equation)
Structures can show the parent of a compound that is named as a salt.
measured property: furin enzyme pIC50

>>> print(df.to_string())
                                   molecule  recorded_measurement
0  CC(=O)NCC1CCN(Cc2cc(Oc3ccc(N4CC[C@@H](N)[C@@H](F)C4)nc3)nc(-c3cc(Cl)cc(Cl)c3)c2)CC1 (relative stereo)                   9.3
1  CN1CC2CN(c3ncc(Oc4cc(CN5CCC(CC(=O)O)CC5)cc(-c5cc(Cl)cc(Cl)c5)n4)cn3)CC2C1 (stereo not drawn)                   8.3
2  CNCc1cc(Oc2ccc(N3CCN(CCC(=O)O)CC3)nc2)nc(-c2cc(Cl)cc(Cl)c2)c1 [Example 50, hydrochloride]                   8.1
3  CC(=O)NCC1CCN(Cc2cc(Oc3ccc(N4CCN(CCC(=O)O)CC4)nc3)cc(-c3cc(Cl)cc(Cl)c3)c2)CC1                   9.6
4  COC(=O)C(C)CCN1CCN(c2ncc(Oc3cc(CN4CCC(CNC(C)=O)CC4)cc(-c4cc(Cl)cc(Cl)c4)n3)cn2)CC1 (stereo not drawn)                   8.3
5  CC(=O)NCC1CCN(Cc2cc(Oc3cnc(N4CCN(CC(O)CF)CC4)nc3)nc(-c3cc(Cl)cc(Cl)c3)c2)CC1 (stereo not drawn)                   8.8

###

system under test: furin (endogenous protease) in U20S cells (Homo sapiens, UniProt P09958)
Construct: the endogenous protease cleaves GFP; endogenous in cells; host or cells: U2OS cells transduced with a BacMam reporter
Sequence (P09958 108-794): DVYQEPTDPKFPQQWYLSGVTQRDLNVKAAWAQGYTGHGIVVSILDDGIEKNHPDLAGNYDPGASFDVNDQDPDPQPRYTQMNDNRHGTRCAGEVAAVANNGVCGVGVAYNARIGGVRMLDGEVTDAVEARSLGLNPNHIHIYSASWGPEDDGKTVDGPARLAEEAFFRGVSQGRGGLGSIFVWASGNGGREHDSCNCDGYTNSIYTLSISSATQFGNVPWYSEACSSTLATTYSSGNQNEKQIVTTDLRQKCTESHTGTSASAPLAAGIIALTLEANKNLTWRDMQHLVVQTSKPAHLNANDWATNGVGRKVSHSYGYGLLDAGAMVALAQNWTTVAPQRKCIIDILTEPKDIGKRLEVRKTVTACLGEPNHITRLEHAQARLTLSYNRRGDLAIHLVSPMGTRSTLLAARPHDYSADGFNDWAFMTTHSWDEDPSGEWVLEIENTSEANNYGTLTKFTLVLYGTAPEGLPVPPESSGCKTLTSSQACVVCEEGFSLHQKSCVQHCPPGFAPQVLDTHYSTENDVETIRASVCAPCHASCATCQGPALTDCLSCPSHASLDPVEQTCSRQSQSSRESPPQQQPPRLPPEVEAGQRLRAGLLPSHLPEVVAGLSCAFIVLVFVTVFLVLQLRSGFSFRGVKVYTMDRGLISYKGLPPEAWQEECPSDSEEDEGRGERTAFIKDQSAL
test protocol: Furin cell-based assay (image-based, Golgi-targeted GFP with BMP10 furin/PCSK cleavage site)
applied conditions: 24-hour incubation, read-out: furin golgi cell pXC50 (converted)
Where a name gives a salt, the structure may show the parent alone.
measured property: EC50 (nM)

Examples with their reported EC50 follow.
>>> print(df.to_string())
                                   compound  recorded_measurement
0  CNC(=O)NCC1CCN(Cc2cc(Oc3cnc(N4CCN(CCC(=O)O)CC4)nc3)nc(-c3cc(Cl)cc(Cl)c3)c2)CC1 [Example 256]                  15.8
1  CC(=O)NCC1CCN(Cc2cc(Oc3cnc(N4CCN(CCC(=O)O)CC4)nc3)nc(-c3cc(Cl)cc(Cl)c3)c2)CC1 [Example 263]                    10
2  CN1CCN(c2ccc(Oc3cc(CN4CC[C@@H]5[C@H](CC4)[C@H]5C(=O)O)cc(-c4cc(Cl)cc(Cl)c4)n3)nn2)CC1 [Example 361]                  50.1
3  CC(=O)NCC1CCN(Cc2cc(Oc3cnc(N4CCN(CCO)CC4)nc3)nc(-c3cc(Cl)cc(Cl)c3)c2)CC1 [Example 93, hydrochloride]                  5.01
4  CC(=O)NCC1CCN(Cc2cc(Oc3ccc(N4CCCN(CCC(=O)O)CC4)nc3)nc(-c3cc(Cl)cc(Cl)c3)c2)CC1 [Example 190]                   158

P = CN1CCN(c2ncc(Oc3cc(CN4CCC(CC(=O)O)CC4)cc(-c4cc(Cl)cc(Cl)c4)n3)cc2F)CC1 [Example 151]
Q = CCN1C[C@@H]2C[C@H]1CN2c1ccc(Oc2cc(CN3CCC(CC(=O)O)CC3)cc(-c3cc(Cl)cc(Cl)c3)n2)nn1 [Example 366]
## Task Which has the smaller recorded EC50, P or Q ? Respond using the label that marks the chosen record.
## Result Q

P = CN1CCCN(c2cnc(Oc3cc(CN4CCC(CC(=O)O)CC4)cc(-c4cc(Cl)cc(Cl)c4)n3)cn2)CC1 [Example 340]
Q = CC(CCO)N1CCN(c2ncc(Oc3cc(CN4CCC(CC(=O)O)CC4)cc(-c4cc(Cl)cc(Cl)c4)n3)cn2)CC1 (stereo not shown) [Example 238]
## Task // max by EC50 over [ P , Q ] Respond using the label that marks the chosen record.
## Result P

a = CN1CCN(c2ncc(Nc3cc(CN4CCC(CC(=O)O)CC4)cc(-c4cc(Cl)cc(Cl)c4)n3)cn2)CC1 [Example 332, hydrochloride]
b = CP(C)(=O)CC1CCN(Cc2cc(Oc3ccc(N4CCN(CCC(=O)O)CC4)nc3)nc(-c3cc(Cl)cc(Cl)c3)c2)CC1 [Example 85]
c = CC(=O)NCC1CCN(Cc2cc(Oc3ccc(N4CCN(CCC(=O)O)CC4)nc3)nc(-c3cc(F)cc(Cl)c3)c2)CC1 [Example 115]
## Task Given 3 compounds, produce a descending ranking by EC50. Please respond by ranking the labels in the order requested.
## Result c, b, a
(c: 251 nM, b: 158 nM, a: 50.1 nM)

###

system under test: furin (endogenous protease) in U20S cells (Homo sapiens, UniProt P09958)
Construct: the endogenous protease cleaves GFP; endogenous in cells; host or cells: U2OS cells transduced with a BacMam reporter
test protocol: Furin cell-based assay (image-based, Golgi-targeted GFP with BMP10 furin/PCSK cleavage site);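 note: Read-out is mean GFP fluorescence of Golgi puncta per cell by high-content imaging, retained when furin inhibited, over an eleven-point 0.00017–10 µM series, four-parameter fit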
applied conditions: 24-hour incubation, read-out: furin golgi cell pXC50 (converted)
Structures can show the parent of a compound that is named as a salt.
measured property: EC50 (nM)

Examples with their reported EC50 follow.
>>> print(df.to_string())
                                   molecule  recorded_measurement
0  CC(=O)NCC1CCN(Cc2cc(Oc3cnc(N4CCN(C(C)CCS(C)(=O)=O)CC4)nc3)nc(-c3cc(Cl)cc(Cl)c3)c2)CC1 (stereo not shown) [Example 19]                 0.398
1  CN1C2CCC1CN(c1ncc(Oc3nc(-c4cc(Cl)cc(Cl)c4)cc(CN4CCC(CC(=O)O)CC4)c3F)cn1)C2 [Example 378]                  6.31
2  CC(CC1CCN(Cc2cc(Oc3cnc(N4CCN(C[C@@H](C)O)CC4)nc3)nc(-c3cc(Cl)cc(Cl)c3)c2)CC1)C(=O)O (stereo partly shown) [Example 301]                  39.8

a = NC(=O)CC1CCN(Cc2cc(Oc3cnc(N4CCNCC4)nc3)nc(-c3cc(Cl)cc(Cl)c3)c2)CC1 [Example 86, hydrochloride]
b = CNC(=O)OCC1CCN(Cc2cc(Oc3cnc(N4CCN(CCCS(C)(=O)=O)CC4)nc3)nc(-c3cc(Cl)cc(Cl)c3)c2)CC1 [Example 210]
## Task // max by EC50 over [ a , b ] Respond using the label that marks the chosen record.
## Result a

A = CC(=O)NCC1CCN(Cc2cc(Oc3cnc(N4CCN(C(C)CCC(=O)O)CC4)nc3)nc(-c3cc(Cl)cc(Cl)c3)c2)CC1 (stereo not shown) [Example 215]
B = CN1CCCN(c2ccc(Oc3cc(CN4CCC(CC(=O)O)CC4)cc(-c4cc(Cl)cc(Cl)c4)n3)cn2)CC1 [Example 156]
## Task // max by EC50 over [ A , B ] Respond using the label that marks the chosen record.
## Result B
(B: 15.8 nM, A: 10 nM)

a = CC(CC1CCN(Cc2cc(Oc3cnc(N4CCN(C)CC4)nc3)nc(-c3cc(Cl)cc(Cl)c3)c2)CC1)C(=O)O (stereo not shown) [Example 131]
b = CN1CCCN(c2ncc(Oc3cc(CN4CCC(OCC(=O)O)CC4)cc(-c4cc(Cl)cc(Cl)c4)n3)cn2)CC1 [Example 140]
## Task Which has the smaller recorded EC50, a or b ? Respond using the label that marks the chosen record.
## Result b
(b: 7.94 nM, a: 31.6 nM)

1 = CC(=O)NCC1CCN(Cc2cc(Oc3cnc(N4CCN(CC(O)CF)CC4)nc3)nc(-c3cc(Cl)cc(Cl)c3)c2)CC1 (stereo not shown) [Example 304]
2 = CCC(=O)NCC1CCN(Cc2cc(Oc3cnc(N4CCN(CCC(C)C(=O)O)CC4)nc3)nc(-c3cc(Cl)cc(Cl)c3)c2)CC1 (stereo not shown) [Example 59]
## Task // max by EC50 over [ 1 , 2 ] Respond using the label that marks the chosen record.
## Result 2
(2: 6.31 nM, 1: 2.51 nM)
